Cited source: the supplement of paper PMC8498969

The reader will find reported log10(IC50) values listed item by item below.
system: HEK293; test: IC50 for inhibition of ZIKV NS1 production
Scale: decimal log of IC50, IC50 in nM.

# compound, assay.value
measured = [
    ("CC[C@]1(O)C[C@@H]2CN(CCc3c([nH]c4ccccc34)[C@@](C(=O)OC)(c3cc4c(cc3OC)N(C)[C@H]3[C@@](O)(C(=O)OC)[C@H](OC(C)=O)[C@]5(CC)C=CCN6CC[C@]43[C@@H]65)C2)C1", 3.75),
]

Incoming: What does the data say about its log10(IC50)? Entry: `Cc1ccc([N+](=O)[O-])[c]2c1[O][Hg]2`
Outgoing: 4.15

Incoming: Also, `C[C@]12O[C@H](C[C@]1(O)CO)n1c3ccccc3c3c4c(c5c6ccccc6n2c5c31)CNC4=O` please.
Outgoing: 3.23

Incoming: Also, `C[C@@H]1O[C@@H](O[C@H]2C[C@@H](O)[C@]3(CO)[C@H]4[C@H](O)C[C@]5(C)[C@@H](C6=CC(=O)OC6)CC[C@]5(O)[C@@H]4CC[C@]3(O)C2)[C@H](O)[C@H](O)[C@H]1O` please.
Outgoing: 2.23

Incoming: Also, `C[C@@H]1O[C@@H](O[C@@H]2C=C3CC[C@@H]4[C@H](CC[C@]5(C)[C@@H](c6ccc(=O)oc6)CC[C@]45O)[C@@]3(C)CC2)[C@H](O)[C@H](O)[C@H]1O` please.
Outgoing: 1.43

Incoming: Also, `Nc1nc(Cl)nc2c1ncn2[C@@H]1O[C@H](CO)[C@@H](O)[C@@H]1F` please.
Outgoing: 4.61

Incoming: Also, `COc1ccc(-c2cc3c(C)nc(N)nc3n([C@H]3CC[C@H](OCCO)CC3)c2=O)cn1` please.
Outgoing: 3.18
